B1: CPEB3 Ribozyme (parent)
chain: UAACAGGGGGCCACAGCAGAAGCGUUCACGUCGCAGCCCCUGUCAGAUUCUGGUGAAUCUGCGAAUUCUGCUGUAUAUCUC

- Variants of: B1
- Measurement Description: self-cleavage, relative activity (ratio to wild type); higher = more cleavage; in vitro, sequencing
# cutoff 0.5 applies to self-cleavage; >= gives Yes, < gives No

Example entries and their recorded answers appear below.
{"Variant Description": "A15U U51C", "Classification": "Yes"}
{"Variant Description": "A13C C71U", "Classification": "No"}
{"Variant Description": "G52A U66A", "Classification": "Yes"}
{"Variant Description": "G52U A64G", "Classification": "Yes"}
{"Variant Description": "U1A C29U", "Classification": "Yes"}
{"Variant Description": "U74C U80A", "Classification": "Yes"}

Answer whether self-cleavage of A18C U58A is greater than or equal to 0.5.
No

Answer whether self-cleavage of U31G G53A is greater than or equal to 0.5.
No

Answer whether self-cleavage of C4G U26A is greater than or equal to 0.5.
Yes
